studySystem: human serum albumin (human) (UniProt P02768)
Sequence (P02768 25-609 limits assumed): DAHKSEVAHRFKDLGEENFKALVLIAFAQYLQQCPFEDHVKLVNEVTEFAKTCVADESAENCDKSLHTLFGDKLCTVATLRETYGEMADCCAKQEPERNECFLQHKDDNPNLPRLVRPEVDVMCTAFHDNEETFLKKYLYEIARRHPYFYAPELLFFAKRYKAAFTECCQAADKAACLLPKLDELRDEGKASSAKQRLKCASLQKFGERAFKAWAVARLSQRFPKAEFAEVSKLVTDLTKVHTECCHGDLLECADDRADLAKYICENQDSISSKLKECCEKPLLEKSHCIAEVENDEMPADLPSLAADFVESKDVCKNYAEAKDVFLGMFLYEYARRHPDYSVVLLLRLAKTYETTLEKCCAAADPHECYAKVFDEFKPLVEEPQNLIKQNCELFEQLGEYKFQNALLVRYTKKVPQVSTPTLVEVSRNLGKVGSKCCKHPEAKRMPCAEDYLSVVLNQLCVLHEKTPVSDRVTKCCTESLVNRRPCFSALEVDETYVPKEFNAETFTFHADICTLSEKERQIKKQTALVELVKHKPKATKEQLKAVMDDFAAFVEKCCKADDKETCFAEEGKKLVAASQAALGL
protocolDescription: screening ELISA
recordedEndpoint: HSA

Observe how each entry below is paired with its result.
# binder, HSA
data = [
    ("SEQ ID NO 235 (designed binder) MLPAPKNLVVSRVTEDSARLSWTAPDAAFDSFSINYREWWSDGEAIYLPVPGSERSYDLTGLKPGTEYAVYIQGVKGGSRSFPLHAWFTT", 1350),
    ("SEQ ID NO 188 (designed binder) MLPAPKNLVVSRVTEDSARLSWTAPDAAFDSFLIPYAETSPSGEAIVLTVPGSERSYDLTGLKPGTEYSVLIHGVKGGKLSLPLSAIFTT", 3350),
]

(1) SEQ ID NO 172 (designed binder) MLPAPKNLVVSRVTEDSARLSWTAPDAAFDSFPIEYDEWWALGEAITLIVPASERSYDLTGLKPGTEYVVKIHGVKGGQRSYPLIAFFTT
(2) SEQ ID NO 254 (designed binder) MLPAPKNLVVSRVTEDSARLSWTAPDAAFDSFFIPYAEPSPTGEAIVLTVPGSERSYDLTGLKPGTEYSVLIHGVKGGHLSDPLSAISTT
### Prompt Could you determine which record has the numerically smaller HSA? Candidates: 1 and 2 Respond using the label that marks the chosen record.
### Response 1
(1: 3700, 2: 90000)
